- study_target: Voltage-gated potassium channel subunit beta-2 (Rattus norvegicus) (UniProt P62483)
- Sequence (P62483 whole entry, looked up): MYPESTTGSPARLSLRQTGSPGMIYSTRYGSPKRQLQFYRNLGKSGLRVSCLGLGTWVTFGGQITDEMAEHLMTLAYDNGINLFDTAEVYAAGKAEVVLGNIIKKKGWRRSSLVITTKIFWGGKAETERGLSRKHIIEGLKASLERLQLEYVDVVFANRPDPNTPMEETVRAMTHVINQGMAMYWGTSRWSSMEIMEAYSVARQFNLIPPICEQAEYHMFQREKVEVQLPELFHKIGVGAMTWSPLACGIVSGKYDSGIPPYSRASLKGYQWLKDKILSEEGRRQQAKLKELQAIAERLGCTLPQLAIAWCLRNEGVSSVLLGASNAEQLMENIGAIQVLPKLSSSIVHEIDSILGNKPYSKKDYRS
- protocol_description: enhancers of rat Kvbeta2 NADPH turnover – biochemical, NADPH fluorescence, primary screen (AID 623);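 note: fluorescence intensity change per second fitted from 20 to 320 s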
- settings: Recombinant KvBeta, NADPH fluorescence decrease slope, 10 min; at 10 µM; stronger effect = lower value
Measured NADPH fluorescence slope by item
Returns: the value as a bare number; no unit string appended.

Previously resolved entries follow.
Challenge: Look at this compound and give its reported NADPH fluorescence slope. CCCC(=O)n1nc(-c2ccc(OC)cc2)nc1N
Response given: -4.3e-05

Challenge: Look at this compound and give its reported NADPH fluorescence slope. COc1cc(OC)cc(-n2nnnc2SCC(=O)N2CCCC2)c1
Response given: 1.7e-05

Challenge: Look at this compound and give its reported NADPH fluorescence slope. COC(=O)c1[nH]c2ccc(C)cc2c1NC(=O)CN1CCN(C(=O)c2ccccc2)CC1
Response given: -3.3e-05

Continuing:
Challenge: Look at this compound and give its reported NADPH fluorescence slope. COc1ccc(C)cc1NC(=O)CNC(=O)Cn1ccc2ccccc2c1=O
Response given: -2.5e-05

Challenge: Look at this compound and give its reported NADPH fluorescence slope. O=C(NCc1cccs1)C(Cc1ccccc1)n1cccc1 (configuration not stated)
Response given: -5.2e-05

Challenge: Look at this compound and give its reported NADPH fluorescence slope. Cc1cc(N2C(=O)C(O)=C(C(=O)c3ccc(C)o3)C2c2cccs2)no1 (configuration not stated)
Response given: -1.8e-05

Challenge: Look at this compound and give its reported NADPH fluorescence slope. COc1ccc(OC)c(Nc2nc(-c3cccs3)cs2)c1
Response given: -6e-05

---

- protocol_description: reduction of polyQ htt aggregates in cells – imaging, exon1htt(103Q)mCFP cells, high-content imaging, primary screen (AID 483);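 note: compound exposure lasted 3 days before fixation; percent of the per-plate median nuclei count of sample wells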
- settings: exon1htt(103Q)mCFP cell line, aggregate imaging, at 2 µM; measured here: cell count, toxicity
attribute_measured: nuclei count (%)
Number in %, nothing else.

Previously resolved entries follow.
Challenge: Look at this compound and give its reported nuclei count. O=C(CCCC(=O)N(CC(=O)NC1CCCCC1)Cc1ccc2c(c1)OCO2)Nc1ccccn1
Response given: 91

Challenge: Look at this compound and give its reported nuclei count. COc1ccc(CCNC(=O)CN(c2ccccc2OC)S(C)(=O)=O)cc1
Response given: 87.7

Challenge: Look at this compound and give its reported nuclei count. Cc1cccc(N(CC(=O)N2CCCC2)S(=O)(=O)c2ccccc2)c1C
Response given: 87.6

Challenge: Look at this compound and give its reported nuclei count. CC1=C(C(=O)NCc2ccccn2)C2(CCC(C)CC2)OC1=O (stereo not given)
Response given: 91.3

Let us examine a further case.
Challenge: Look at this compound and give its reported nuclei count. Cc1c(C(=O)NCc2cccnc2)sc2ncn(CC(=O)N3CCCCC3C)c(=O)c12 (stereo not given)
Response given: 89.7

---

- protocol_description: blockers of RIG-like receptor reporter activation – cell-based, Sendai virus stimulus, luciferase, 10K MLSCN set, TLR/RLR signaling modifier project, primary screen (AID 602276);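 note: firefly luciferase from ISG56 promoter only with Renilla not read in this screen; 0% = Sendai virus plus DMSO and 100% = medium plus DMSO without virus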
- settings: HEK293 RL24 IRF3 luciferase reporter, at 10 µM, stronger effect = higher value
The source made the active and inactive calls.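 Rule for the calls: active = inhibition at or above 50% at 10 µM; inactive = inhibition below 50%.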
Measured inhibition by item

Previously resolved entries follow.
Challenge: Look at this molecule and give its reported inhibition. O=C1CCC(C(=O)N(Cc2ccco2)C2(C(=O)NC3CCCC3)CCCCC2)N1 (configuration not stated)
Response given: 5.55% (inactive)

Challenge: Look at this molecule and give its reported inhibition. COC(=O)CSc1nnc(CSc2nc(C)cc(C)n2)n1Cc1ccco1
Response given: 1.21% (inactive)

Challenge: Look at this molecule and give its reported inhibition. CN(C)S(=O)(=O)c1ccc2c(c1)C(CC(=O)O)OC2=O (configuration not stated)
Response given: 17.3% (inactive)

Challenge: Look at this molecule and give its reported inhibition. CCOc1ccc(S(=O)(=O)Nc2ccc(Cl)cn2)c(C)c1C
Response given: 4.93% (inactive)

Continuing:
Challenge: Look at this molecule and give its reported inhibition. CCOc1ccc(C2C(C(=O)OC)=CN(CCOC)C=C2C(=O)OC)cc1
Response given: -9.2% (inactive)

---

- protocol_description: reduction of polyQ htt aggregates in cells – imaging, exon1htt(103Q)mCFP cells, high-content imaging, primary screen (AID 483);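 note: compound exposure lasted 3 days before fixation; percent of the per-plate median nuclei count of sample wells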
- settings: exon1htt(103Q)mCFP cell line, aggregate imaging, at 2 µM; measured here: cell count, toxicity
Measured nuclei count by item
Number in %, nothing else.

Previously resolved entries follow.
Challenge: Look at this compound and give its reported nuclei count. CCOC(=O)C1=C(N)OC2=C(C(=O)CC(C)(C)C2)C1c1ccoc1 (stereo not drawn)
Response given: 78.3

Challenge: Look at this compound and give its reported nuclei count. COC(=O)COc1ccc(C(=O)OC)cc1
Response given: 100

Let us examine a further case.
Challenge: Look at this compound and give its reported nuclei count. CCCN1Cc2cccc(C(=O)NC3CCCC3)c2C1=O
Response given: 95.2

---

- study_target: Voltage-gated potassium channel subunit beta-2 (Rattus norvegicus)
- protocol_description: enhancers of rat Kvbeta2 NADPH turnover – biochemical, NADPH fluorescence, primary screen (AID 623);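 note: fluorescence intensity change per second fitted from 20 to 320 s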
- settings: Recombinant KvBeta, NADPH fluorescence decrease slope, 10 min; at 10 µM; stronger effect = lower value
Measured NADPH fluorescence slope by item
Returns: the value as a bare number; no unit string appended.

Previously resolved entries follow.
Challenge: Look at this compound and give its reported NADPH fluorescence slope. O=C(Cn1c(=O)[nH]c2ccsc2c1=O)N1CCN(c2ccc(F)cc2)CC1
Response given: -3e-05

Challenge: Look at this compound and give its reported NADPH fluorescence slope. Cc1nn(Cc2ccccc2Cl)c(C)c1NC(=O)C1C2CCC(O2)C1C(=O)O (configuration not stated)
Response given: -3.1e-05

Challenge: Look at this compound and give its reported NADPH fluorescence slope. COc1ccc(OC)c(NC(=O)CCN2CCN(c3ccccc3F)CC2)c1
Response given: -3.3e-05

Challenge: Look at this compound and give its reported NADPH fluorescence slope. O=C(CCCn1c(=O)[nH]c2ccsc2c1=O)N1CCN(c2ccccn2)CC1
Response given: -4.1e-05

Continuing:
Challenge: Look at this compound and give its reported NADPH fluorescence slope. O=C(Nc1ccc(SC(F)F)cc1)c1ccc2nccnc2c1
Response given: 2e-05

Challenge: Look at this compound and give its reported NADPH fluorescence slope. O=C(c1ccco1)N1CCN(c2nc(C(F)(F)F)nc3c2nnn3Cc2ccccc2)CC1
Response given: -5.9e-05

Challenge: Look at this compound and give its reported NADPH fluorescence slope. CC1(C)CC(=O)c2cnc(NCc3ccco3)nc2C1
Response given: -1.8e-05

---

Measured cell count by item
- protocol_description: inhibitors of TNFa-induced NFkB p65 translocation, primary screen, imaging, HUVEC, MLSMR starter and 10KST1 sets (AID 438);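 note: compound added about 3h40 before a 20 min TNFalpha stimulation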
- settings: HUVEC TNFa-induced p65 nuclear translocation; measured here: nuclei count (cytotoxicity indicator), at 2.08 µM
Returns: the value as a bare number; no unit string appended.

Challenge: Look at this compound and give its reported cell count. COC(=O)CCc1c(C)c(C#N)c2nc3ccccc3n2c1N1CCCC1
Response given: 490

Challenge: Look at this compound and give its reported cell count. Cc1cccc(C)c1NC(=O)COC(=O)c1nonc1N
Response given: 429

Challenge: Look at this compound and give its reported cell count. Cc1ccc2[nH]c3c(=O)n(CCCN4CCN(C)CC4)cnc3c2c1
Response given: 478

Challenge: Look at this compound and give its reported cell count. Cc1ccc2cc(C(c3nnnn3C3CCCC3)N3CCN(c4ccc(F)cc4)CC3)c(=O)[nH]c2c1 (stereo not drawn)
Response given: 586

Challenge: Look at this compound and give its reported cell count. CCCCN(C)Cc1c(O)ccc2c(-c3ccccc3)cc(=O)oc12
Response given: 303

Challenge: Look at this compound and give its reported cell count. COc1ccccc1OCc1ccc(C(=O)N2CCN(C(=O)c3ccco3)CC2)cc1
Response given: 502

---

Measured inhibition by item
- protocol_description: TLR3 IRF3 reporter activation blockers – cell-based, poly I:C stimulus, luciferase, 10K MLSCN set, primary screen (AID 602277)
- settings: HEK293-TLR3 RL24 IRF3 luciferase reporter, at 10 µM, stronger effect = higher value
Number in %, nothing else.

Challenge: Look at this molecule and give its reported inhibition. CCOCCCNC(=O)c1cc2sc(Cl)cc2n1CC
Response given: 19.5

Challenge: Look at this molecule and give its reported inhibition. CON(C)c1nc(Oc2ccc(=O)[nH]n2)nc(N(C)C)n1
Response given: 19.3

Challenge: Look at this molecule and give its reported inhibition. CN1CCN(c2nc3c(c(=O)[nH]c(=O)n3C)n2CCOc2ccccc2)CC1
Response given: 27.3

Continuing:
Challenge: Look at this molecule and give its reported inhibition. O=C(Nc1ccccc1)N(Cc1cccnc1)Cc1ccco1
Response given: 14.3

Challenge: Look at this molecule and give its reported inhibition. CCSc1nc2ccccc2n1CCC(=O)O
Response given: 18.3

Challenge: Look at this molecule and give its reported inhibition. O=C(CS(=O)(=O)c1cn(Cc2ccc(F)cc2)c2ccccc12)N1CCCCC1
Response given: 11.2
